# system.tested: PI3-kinase p110-alpha/p85-alpha (Homo sapiens)
# Sequence (P27986 whole entry): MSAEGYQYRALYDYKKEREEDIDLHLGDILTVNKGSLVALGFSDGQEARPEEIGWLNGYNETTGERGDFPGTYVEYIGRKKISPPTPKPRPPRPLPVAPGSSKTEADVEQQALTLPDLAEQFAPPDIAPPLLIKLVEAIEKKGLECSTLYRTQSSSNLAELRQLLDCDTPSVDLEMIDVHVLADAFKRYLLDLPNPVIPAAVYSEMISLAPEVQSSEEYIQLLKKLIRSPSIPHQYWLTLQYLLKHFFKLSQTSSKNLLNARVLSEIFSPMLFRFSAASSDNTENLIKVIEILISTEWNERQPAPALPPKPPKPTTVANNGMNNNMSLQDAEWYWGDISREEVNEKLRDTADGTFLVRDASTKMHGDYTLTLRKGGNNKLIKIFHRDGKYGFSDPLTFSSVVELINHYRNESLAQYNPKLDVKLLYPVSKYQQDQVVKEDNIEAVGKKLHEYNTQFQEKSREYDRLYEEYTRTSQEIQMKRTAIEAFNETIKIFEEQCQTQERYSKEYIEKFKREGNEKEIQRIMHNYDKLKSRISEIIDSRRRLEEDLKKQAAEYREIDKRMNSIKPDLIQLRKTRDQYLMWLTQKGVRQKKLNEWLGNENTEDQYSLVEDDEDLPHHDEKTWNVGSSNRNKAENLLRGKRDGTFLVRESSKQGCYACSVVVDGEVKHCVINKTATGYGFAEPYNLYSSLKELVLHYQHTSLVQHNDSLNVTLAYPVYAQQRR
# Sequence (P42336 whole entry): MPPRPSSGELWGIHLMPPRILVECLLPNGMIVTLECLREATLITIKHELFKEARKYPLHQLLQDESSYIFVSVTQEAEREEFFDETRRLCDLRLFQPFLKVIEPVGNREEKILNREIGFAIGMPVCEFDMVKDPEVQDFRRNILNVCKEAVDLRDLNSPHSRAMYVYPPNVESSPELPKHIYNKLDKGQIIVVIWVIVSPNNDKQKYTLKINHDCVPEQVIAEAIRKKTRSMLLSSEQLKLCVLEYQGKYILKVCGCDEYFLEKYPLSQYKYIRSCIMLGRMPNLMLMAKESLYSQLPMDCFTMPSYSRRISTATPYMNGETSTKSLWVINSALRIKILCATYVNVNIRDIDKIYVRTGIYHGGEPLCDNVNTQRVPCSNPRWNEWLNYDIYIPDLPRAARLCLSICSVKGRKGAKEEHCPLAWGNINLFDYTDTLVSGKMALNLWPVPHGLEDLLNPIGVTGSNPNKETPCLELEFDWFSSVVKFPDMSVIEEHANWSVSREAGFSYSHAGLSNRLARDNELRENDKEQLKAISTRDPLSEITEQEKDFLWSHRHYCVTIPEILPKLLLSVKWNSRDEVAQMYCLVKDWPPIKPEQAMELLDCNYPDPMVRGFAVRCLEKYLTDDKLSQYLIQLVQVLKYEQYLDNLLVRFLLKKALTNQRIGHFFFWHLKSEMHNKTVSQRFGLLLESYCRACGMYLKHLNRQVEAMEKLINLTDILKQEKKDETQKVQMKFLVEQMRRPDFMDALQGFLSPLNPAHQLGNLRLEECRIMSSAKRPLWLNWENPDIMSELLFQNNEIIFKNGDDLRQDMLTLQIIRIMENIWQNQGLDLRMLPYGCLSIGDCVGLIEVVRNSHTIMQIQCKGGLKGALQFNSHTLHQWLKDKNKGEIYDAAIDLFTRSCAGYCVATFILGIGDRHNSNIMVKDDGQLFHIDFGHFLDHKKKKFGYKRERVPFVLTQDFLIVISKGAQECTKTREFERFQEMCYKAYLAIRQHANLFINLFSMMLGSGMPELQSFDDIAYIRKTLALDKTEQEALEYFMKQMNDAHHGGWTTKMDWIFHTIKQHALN
# protocol.text: Inhibition of PI3 kinase p110alpha/p85-alpha complex
Recorded pIC50 by entry
Here pIC50 is given on a logarithmic scale as minus log10 of the concentration in mol/L.

compound=CN(C)c1ccc2c(CC(=O)O[C@@H]3CC(=O)c4coc5c4[C@@]3(C)c3ccc4c(c3C5=O)CCC4=O)cc(=O)oc2c1 quantitative_result=8.72
compound="COC[C@H]1OC(=O)c2coc3c2[C@@]1(C)C1=C(C3=O)C2CC[C@H](OC(=O)Cc3cc(=O)oc4cc(N(C)C)ccc34)[C@@]2(C)C[C@H]1OC(C)=O (stereo partly specified)" quantitative_result=6.16
compound=CN(CC(=O)O[C@@H]1CC(=O)c2coc3c2[C@@]1(C)c1ccc2c(c1C3=O)CCC2=O)c1ccc([N+](=O)[O-])c2nonc12 quantitative_result=8.02
compound="COC[C@H]1OC(=O)c2coc3c2[C@@]1(C)C1=C(C3=O)C2CCC(=O)[C@@]2(C)C[C@H]1OC(=O)Cc1cc(=O)oc2cc(N(C)C)ccc12 (stereo partly specified)" quantitative_result=8.00
compound="COC[C@H]1OC(=O)c2coc3c2[C@@]1(C)C1=C(C3=O)C2CC[C@H](OC(=O)CN(C)c3ccc([N+](=O)[O-])c4nonc34)[C@@]2(C)C[C@H]1OC(C)=O (stereo partly specified)" quantitative_result=6.65

Please examine the following record next.
Quick note, pIC50 for COC[C@H]1OC(=O)c2coc3c2[C@@]1(C)C1=C(C3=O)C2CCC(=O)[C@@]2(C)C[C@H]1OC(=O)CN(C)c1ccc([N+](=O)[O-])c2nonc12 (stereo partly specified) landed at 9.15
